Assignment: determine reported recombinant barcode read abundance (log10) for the given sequences.
- experimental_details: recombinant barcode read abundance after kanamycin selection (control-corrected) (log10(CPM+1)); higher = more efficient recombination; sequences stand for … in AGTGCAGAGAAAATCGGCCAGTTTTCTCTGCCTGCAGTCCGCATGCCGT…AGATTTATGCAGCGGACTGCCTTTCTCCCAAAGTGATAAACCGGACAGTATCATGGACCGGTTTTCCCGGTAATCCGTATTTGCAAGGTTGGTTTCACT; site = the 11-nt target;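 further: IS621 recombinase and bridge RNA in Escherichia coli cells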

{"sequence": "AATGCTCCTTGGGTTCTAACCTGTTGCCT (site AATGCTCCTAA)", "measured_result": 0.0483}
{"sequence": "TATACCACTTGGGTTCTAACCTGTTGCCT (site TCGACCACTAG)", "measured_result": 0.103}
{"sequence": "CGTGGTCCTTGGGTTCTAACCTGTTGCGT (site CGTGGTCCTAA)", "measured_result": 0.615}

Each sequence below has a recorded value; state its recombinant barcode read abundance (log10).
1. TCACAGCCTTGGGTTCTAACCTGTTGCTG (site TCAAAGCCTCA)
2. CAACCTACTTGGGTTCTAACCTGTTGCCT (site CAACCTACTAG)

A:
1. 0.106
2. 0.586

Consider the following items and state reported recombinant barcode read abundance (log10) for each.
1. TTGTACACTTGGGTTCTAACCTGTTGCCC (site CACATGCCTCA)
2. TCGAACCCTTGGGTTCTAACCTGTTGCGG (site TCAAACCCTCC)
3. CCTGACTCTTGGGTTCTAACCTGTTGCCT (site CCTGAATCTAG)
4. TAGGTTCCTTGGGTTCTAACCTGTTGCAT (site TAGGTACCTAT)
5. CCTAAAACTTGGGTTCTAACCTGTTGCCT (site GAACTCTCTTA)

A:
0.452
0.991
0.088
0.795
0.0257

Parameter requested: recombinant barcode read abundance (log10). Apply to each item below.
1. GAGTCTTCTTGGGTTCTAACCTGTTGCCA (site CTACAGGCTGT)
2. TACAGCCCTTGGGTTCTAACCTGTTGCCT (site TACAGCCCTAG)
3. TCACATGCTTGGGTTCTAACCTGTTGCCT (site TCACTTGCTAG)
4. ATGCGGTCTTGGGTTCTAACCTGTTGCCT (site CTGCGGTCTAT)
5. AGCTTACCTTGGGTTCTAACCTGTTGCCT (site TGCTTACCTAG)

A:
0.281
0.932
0.119
0.112
0.0503

Ref: the supplement of paper PMC11208160
